# Test system: Adriamycin resistant strain 2780 AD cells of human ovarian cancer A2780 cells
# EXPERIMENT DESCRIPTION: Potentiating effect on incorporation of 3H-vincristine into adriamycin-resistant cancer cells
# Assay type: cell-based
# CONDITION PARAMETERS: Homo sapiens, 2780AD, 2 h, compound 1 μg/ml, 20 nM 3H-vincristine, control = 100, read-out: 3H-vincristine accumulation
# note: exactly 700% is not below, so it is Not satisfied; use Satisfied for activity at 1 µg/mL strictly under it

IN: Field: below-cutoff. Rule: recorded activity at 1 µg/mL strictly less than 700%. Subject: OC(COc1cccc2ncccc12)CN1CCCN(C(c2ccccc2)c2ccccc2)CC1 (centres unmarked)
OUT: Satisfied

IN: Field: below-cutoff. Rule: recorded activity at 1 µg/mL strictly less than 700%. Subject: CN(CCCN1c2ccccc2CCc2ccccc21)CC(O)COc1cccc2ncccc12 (centres unmarked)
OUT: Satisfied

IN: Field: below-cutoff. Rule: recorded activity at 1 µg/mL strictly less than 700%. Subject: OC(COc1cccc2ncccc12)CN1CCC(C2(O)c3ccccc3C=Cc3ccccc32)CC1 (centres unmarked)
OUT: Not satisfied

IN: Field: below-cutoff. Rule: recorded activity at 1 µg/mL strictly less than 700%. Subject: `c1ccc(C(c2ccccc2)N2CCN(CCCOc3cccc4ncccc34)CC2)cc1`
OUT: Not satisfied

IN: Field: below-cutoff. Rule: recorded activity at 1 µg/mL strictly less than 700%. Subject: CCc1cnc2cccc(OCC(O)CN3CCN(C(c4ccccc4)c4ccccc4)CC3)c2c1 (centres unmarked)
OUT: Satisfied

IN: Field: below-cutoff. Rule: recorded activity at 1 µg/mL strictly less than 700%. Subject: CN(CCN(C)C(c1ccccc1)c1ccccc1)CC(O)COc1cccc2ncccc12 (centres unmarked)
OUT: Not satisfied

IN: Field: below-cutoff. Rule: recorded activity at 1 µg/mL strictly less than 700%. Subject: OC(COc1cccc2ncccc12)CN1CCC(C2c3ccccc3CCc3ccccc32)CC1 (centres unmarked)
OUT: Not satisfied

Origin of values: patent US5405843A
